List of IC50 tested on Fyn (Homo sapiens).

COCCN1CCC(Nc2ccc3c(c2)/C(=C(\c2ccc(C)cc2)c2nc(C)c[nH]2)C(=O)N3)CC1 :: < 50 nM

Check Fyn (Homo sapiens) data and give IC50 for O=C1Nc2ccc(NC3CC4CCC(C3)N4)cc2/C1=C(\c1ccccc1)c1nc2ccccc2[nH]1 (stereo not drawn) .
50 to 500 nM

Recall the reported IC50 of COCCN1CCC(Nc2ccc3c(c2)/C(=C(\c2ccc(Cl)cc2)c2ncc[nH]2)C(=O)N3)CC1 on Fyn (Homo sapiens) and write it down.
< 50 nM

Report measured IC50 on Fyn (Homo sapiens); entry: CCCc1ccc(/C(=C2/C(=O)Nc3ccc(NC4CCN(CCOC)CC4)cc32)c2ncc[nH]2)cc1
< 50 nM

Give IC50; test system Fyn (Homo sapiens); molecule CCN1CCC(Nc2ccc3c(c2)/C(=C(\c2cccc(C(F)(F)F)c2)c2nc(C)c[nH]2)C(=O)N3)CC1
50 to 500 nM

Give IC50; test system Fyn (Homo sapiens); molecule CCN1CCC(Nc2ccc3c(c2)/C(=C(\c2cccc(F)c2)c2nc(-c4ccccc4)c[nH]2)C(=O)N3)CC1
< 50 nM

Find the measured IC50 of COCCN1CCC(Nc2ccc3c(c2)/C(=C(\c2cccc(F)c2)c2nc(-c4ccccc4)c[nH]2)C(=O)N3)CC1 with Fyn (Homo sapiens) as test system.
< 50 nM

Lab note: Fyn (Homo sapiens) assay, enter IC50 for CCN1CCC(Nc2ccc3c(c2)/C(=C(/c2ncc[nH]2)c2cccc(F)c2F)C(=O)N3)CC1 here
< 50 nM

Fill in IC50 for COCCN1CCC(Nc2ccc3c(c2)/C(=C(\c2ccc(F)cc2)c2ncc[nH]2)C(=O)N3)CC1 tested with Fyn (Homo sapiens).
50 to 500 nM

Send back Fyn (Homo sapiens) IC50 of CCN1CCC(Nc2ccc3c(c2)/C(=C(\c2cccc(C(F)(F)F)c2)c2ncc[nH]2)C(=O)N3)CC1 only.
50 to 500 nM

Report value: IC50, system: Fyn (Homo sapiens), molecule: CCN1CCC(Nc2ccc3c(c2)/C(=C(/c2nc(C)c[nH]2)c2cccc(F)c2F)C(=O)N3)CC1
< 50 nM

====

# tgt: Flt3 (Homo sapiens, UniProt P36888)
# Sequence (P36888 27-993, species assumed): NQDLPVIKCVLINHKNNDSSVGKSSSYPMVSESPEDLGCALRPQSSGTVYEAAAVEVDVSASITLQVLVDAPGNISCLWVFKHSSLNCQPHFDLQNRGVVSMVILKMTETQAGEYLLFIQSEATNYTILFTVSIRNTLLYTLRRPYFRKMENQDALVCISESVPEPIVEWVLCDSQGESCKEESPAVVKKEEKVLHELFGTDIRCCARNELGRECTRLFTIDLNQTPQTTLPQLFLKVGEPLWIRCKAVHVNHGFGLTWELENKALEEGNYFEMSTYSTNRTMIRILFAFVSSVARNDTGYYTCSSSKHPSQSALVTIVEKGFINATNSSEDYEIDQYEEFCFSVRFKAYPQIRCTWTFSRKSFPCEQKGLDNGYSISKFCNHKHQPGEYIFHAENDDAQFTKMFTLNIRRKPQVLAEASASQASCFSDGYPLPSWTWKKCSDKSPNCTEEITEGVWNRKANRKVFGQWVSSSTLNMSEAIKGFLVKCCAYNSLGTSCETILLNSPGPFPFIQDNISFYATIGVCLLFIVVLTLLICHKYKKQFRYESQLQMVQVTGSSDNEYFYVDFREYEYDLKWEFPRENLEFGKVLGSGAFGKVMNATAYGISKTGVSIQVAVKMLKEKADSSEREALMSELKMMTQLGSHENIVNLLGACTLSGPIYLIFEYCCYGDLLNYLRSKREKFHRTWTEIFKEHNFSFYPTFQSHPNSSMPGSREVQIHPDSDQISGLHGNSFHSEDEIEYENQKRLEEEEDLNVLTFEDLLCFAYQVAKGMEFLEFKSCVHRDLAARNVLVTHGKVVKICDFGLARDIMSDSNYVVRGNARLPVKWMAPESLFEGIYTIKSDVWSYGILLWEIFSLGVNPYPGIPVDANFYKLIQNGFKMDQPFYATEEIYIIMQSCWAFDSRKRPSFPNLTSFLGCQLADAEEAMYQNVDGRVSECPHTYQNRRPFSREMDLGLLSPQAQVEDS
attribute-measured: IC50

CCN1CCC(Nc2ccc3c(c2)/C(=C(/c2ncc[nH]2)c2cc(F)c(Cl)cc2Cl)C(=O)N3)CC1 [Entry 116] :: < 50 nM

Turning now to a further record.
Tell me its IC50 given CCN1CCC(Nc2ccc3c(c2)/C(=C(/c2nc(C)c[nH]2)c2cc(F)c(Cl)cc2Cl)C(=O)N3)CC1 [Entry 117] as the entry.
< 50 nM

====

Measured pIC50 on FGFR1 (Homo sapiens) follows.
Sequence (P11362 22-822, species assumed): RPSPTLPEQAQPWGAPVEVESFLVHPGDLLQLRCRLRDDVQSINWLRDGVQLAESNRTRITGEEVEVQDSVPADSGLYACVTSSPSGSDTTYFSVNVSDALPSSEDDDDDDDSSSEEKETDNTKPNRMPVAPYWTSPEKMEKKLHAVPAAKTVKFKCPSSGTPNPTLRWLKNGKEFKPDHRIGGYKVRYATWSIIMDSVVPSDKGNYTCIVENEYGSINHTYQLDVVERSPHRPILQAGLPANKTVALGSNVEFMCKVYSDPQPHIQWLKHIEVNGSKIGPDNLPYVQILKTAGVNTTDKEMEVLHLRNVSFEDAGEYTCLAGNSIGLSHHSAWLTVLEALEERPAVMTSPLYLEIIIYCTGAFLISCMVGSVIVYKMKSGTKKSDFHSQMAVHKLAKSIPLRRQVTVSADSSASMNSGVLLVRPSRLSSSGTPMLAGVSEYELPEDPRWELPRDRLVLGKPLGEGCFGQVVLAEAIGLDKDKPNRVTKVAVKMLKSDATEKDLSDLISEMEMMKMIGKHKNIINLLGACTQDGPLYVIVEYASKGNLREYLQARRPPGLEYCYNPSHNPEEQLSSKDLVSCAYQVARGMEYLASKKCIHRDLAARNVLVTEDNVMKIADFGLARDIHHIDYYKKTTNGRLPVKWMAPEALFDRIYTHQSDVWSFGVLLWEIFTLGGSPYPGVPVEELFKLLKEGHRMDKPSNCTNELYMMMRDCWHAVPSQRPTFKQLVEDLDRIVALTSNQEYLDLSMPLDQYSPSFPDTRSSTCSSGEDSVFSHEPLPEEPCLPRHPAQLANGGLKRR
pIC50: −log10 of the molar value.

State pIC50 (FGFR1 (Homo sapiens)) of CCN1CCC(Nc2ccc3c(c2)/C(=C(\c2ccc(C(F)(F)F)nc2)c2ncc[nH]2)C(=O)N3)CC1 [Entry 68] .
6.30 to 7.30

Provide the reported pIC50 (system: FGFR1 (Homo sapiens)) for CCN1CCC(Nc2ccc3c(c2)/C(=C(\c2cccc(F)c2)c2ncn[nH]2)C(=O)N3)CC1 [Entry 99]
6.30 to 7.30

Return reported pIC50 for target or system FGFR1 (Homo sapiens), item CCN1CCC(N(C)c2ccc3c(c2)/C(=C(\c2cccc(Cl)c2)c2nc4ccccc4[nH]2)C(=O)N3)CC1 [Entry 43] .
6.30 to 7.30

// fetch pIC50 for COCCN1CCC(Nc2ccc3c(c2)/C(=C(\c2cccc(F)c2)c2nc(C)c[nH]2)C(=O)N3)CC1 [Entry 70] ; system: FGFR1 (Homo sapiens)
> 7.30

====

Measured IC50 by item
# tgt: Fyn (Homo sapiens)
# test-details: Kinase assay, Fyn
# Format: biochemical

Below are worked cases with known answers.
COc1ccc2[nH]c(/C(=C3\C(=O)Nc4ccc(NC5CCN(Cc6ccccc6)C5)cc43)c3ccccc3)nc2c1 (stereo not shown) :: 50 to 500 nM
CCN1CCC(N(C)c2ccc3c(c2)/C(=C(\c2cccc(Cl)c2)c2nc4ccccc4[nH]2)C(=O)N3)CC1 :: 50 to 500 nM
CS(=O)(=O)N1CCC(Nc2ccc3c(c2)/C(=C(\c2ccccc2)c2nc4ccccc4[nH]2)C(=O)N3)CC1 :: 500 to 5000 nM

Here is another molecule to look at.
# return recorded IC50 for entry CCN1CCC(Nc2ccc3c(c2)/C(=C(\c2ccc(OC)cc2)c2nc4cc(OC)ccc4[nH]2)C(=O)N3)CC1
< 50 nM

====

Lab note: pIC50 readings collected with IRK (Homo sapiens, UniProt P06213) for the following molecules.
Sequence (P06213 28-1382): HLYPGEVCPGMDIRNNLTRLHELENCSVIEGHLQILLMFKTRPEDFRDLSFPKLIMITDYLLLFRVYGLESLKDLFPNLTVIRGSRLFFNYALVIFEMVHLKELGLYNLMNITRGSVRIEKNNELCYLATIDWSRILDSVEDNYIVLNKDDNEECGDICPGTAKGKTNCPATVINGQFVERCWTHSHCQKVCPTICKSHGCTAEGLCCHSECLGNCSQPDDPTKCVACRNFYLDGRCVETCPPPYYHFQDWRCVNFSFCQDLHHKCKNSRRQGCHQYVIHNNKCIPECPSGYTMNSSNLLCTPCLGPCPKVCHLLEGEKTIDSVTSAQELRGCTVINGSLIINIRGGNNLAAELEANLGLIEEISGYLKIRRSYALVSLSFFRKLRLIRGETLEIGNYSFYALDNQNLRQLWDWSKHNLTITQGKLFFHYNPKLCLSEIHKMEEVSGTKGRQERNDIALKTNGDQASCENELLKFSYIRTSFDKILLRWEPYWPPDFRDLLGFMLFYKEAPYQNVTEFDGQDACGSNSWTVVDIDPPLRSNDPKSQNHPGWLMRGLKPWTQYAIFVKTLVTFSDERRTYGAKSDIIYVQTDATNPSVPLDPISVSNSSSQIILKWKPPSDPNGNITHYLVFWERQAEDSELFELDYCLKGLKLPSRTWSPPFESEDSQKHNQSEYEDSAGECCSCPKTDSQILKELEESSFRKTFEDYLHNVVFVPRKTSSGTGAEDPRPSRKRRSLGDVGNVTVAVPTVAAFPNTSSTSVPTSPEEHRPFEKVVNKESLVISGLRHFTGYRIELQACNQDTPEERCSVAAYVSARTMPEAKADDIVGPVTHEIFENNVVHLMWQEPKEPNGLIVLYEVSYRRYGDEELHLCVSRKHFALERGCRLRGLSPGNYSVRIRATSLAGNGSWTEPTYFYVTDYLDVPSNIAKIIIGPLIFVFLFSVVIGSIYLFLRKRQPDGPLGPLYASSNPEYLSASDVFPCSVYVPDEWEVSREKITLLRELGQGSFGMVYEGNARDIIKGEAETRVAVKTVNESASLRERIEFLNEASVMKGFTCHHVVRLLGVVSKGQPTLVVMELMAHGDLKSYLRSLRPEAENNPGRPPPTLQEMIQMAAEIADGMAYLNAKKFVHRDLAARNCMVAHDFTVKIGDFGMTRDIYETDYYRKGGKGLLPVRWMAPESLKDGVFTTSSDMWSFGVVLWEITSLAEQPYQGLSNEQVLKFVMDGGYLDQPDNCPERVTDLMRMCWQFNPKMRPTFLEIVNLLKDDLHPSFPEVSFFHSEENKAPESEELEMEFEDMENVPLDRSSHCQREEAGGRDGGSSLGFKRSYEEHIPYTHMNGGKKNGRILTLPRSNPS
pIC50: −log10 of the molar value.

Illustrative cases are given below, each with its answer.
CCN1CCC(Oc2ccc3c(c2)/C(=C(\c2cccc(OC)c2)c2nc4ccccc4[nH]2)C(=O)N3)CC1 [Entry 32] :: 5.30 to 6.30
CCN(CC)CCN1CCC(Nc2ccc3c(c2)/C(=C(\c2cccc(F)c2)c2ncc[nH]2)C(=O)N3)CC1 [Entry 84] :: < 5.30
CCN1CCC(Nc2ccc3c(c2)/C(=C(\c2ccc(C)c(F)c2)c2nc4ccccc4[nH]2)C(=O)N3)CC1 [Entry 50] :: 5.30 to 6.30

Moving on to another molecule below.
// Input: CCN1CCC(Nc2ccc3c(c2)/C(=C(\c2ccccc2)c2nc(CCN4C(=O)c5ccccc5C4=O)c[nH]2)C(=O)N3)CC1 [Entry 28] . Output its pIC50 only.
5.30 to 6.30

====

Form field: pIC50 (one value per entry).
# tgt: Fyn (Homo sapiens, UniProt P06241)
# Sequence (P06241 whole entry, species assumed): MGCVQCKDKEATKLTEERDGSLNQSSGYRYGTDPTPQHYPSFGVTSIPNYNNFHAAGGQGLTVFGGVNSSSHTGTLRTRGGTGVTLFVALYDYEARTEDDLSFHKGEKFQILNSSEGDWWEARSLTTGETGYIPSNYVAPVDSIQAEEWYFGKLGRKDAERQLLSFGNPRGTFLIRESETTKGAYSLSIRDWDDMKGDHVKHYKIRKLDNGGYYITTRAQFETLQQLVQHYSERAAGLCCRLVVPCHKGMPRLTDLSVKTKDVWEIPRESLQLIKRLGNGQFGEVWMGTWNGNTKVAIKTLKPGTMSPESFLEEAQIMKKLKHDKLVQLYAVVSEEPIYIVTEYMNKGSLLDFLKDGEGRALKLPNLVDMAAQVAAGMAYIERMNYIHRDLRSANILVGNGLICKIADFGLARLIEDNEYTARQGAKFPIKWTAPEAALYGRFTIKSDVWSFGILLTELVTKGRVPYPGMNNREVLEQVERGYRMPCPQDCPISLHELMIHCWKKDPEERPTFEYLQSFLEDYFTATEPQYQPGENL
pIC50: −log10 of the molar value.

Check out these entries, answers already filled in.
CCOC(=O)c1[nH]c(/C(=C2\C(=O)Nc3ccc(NC4CCN(CCOC)CC4)cc32)c2cccc(F)c2)nc1C :: 6.30 to 7.30
COCCN1CCC(Nc2ccc3c(c2)/C(=C(\c2ccc(C(F)(F)F)c(F)c2)c2ncc[nH]2)C(=O)N3)CC1 :: 6.30 to 7.30
O=C1Nc2ccc(NC3CCN(CCN4CCCCC4)CC3)cc2/C1=C(\c1cccc(F)c1)c1ncc[nH]1 :: 6.30 to 7.30

Let us examine a further case.
Look up and report measured pIC50 for this entry: CCN1CCC(Nc2ccc3c(c2)/C(=C(\c2cc(F)cc(F)c2)c2nc4cc(Cl)ccc4[nH]2)C(=O)N3)CC1
> 7.30
